Target: CLK3 kinase (Homo sapiens, UniProt P49761)
Sequence (P49761 whole entry): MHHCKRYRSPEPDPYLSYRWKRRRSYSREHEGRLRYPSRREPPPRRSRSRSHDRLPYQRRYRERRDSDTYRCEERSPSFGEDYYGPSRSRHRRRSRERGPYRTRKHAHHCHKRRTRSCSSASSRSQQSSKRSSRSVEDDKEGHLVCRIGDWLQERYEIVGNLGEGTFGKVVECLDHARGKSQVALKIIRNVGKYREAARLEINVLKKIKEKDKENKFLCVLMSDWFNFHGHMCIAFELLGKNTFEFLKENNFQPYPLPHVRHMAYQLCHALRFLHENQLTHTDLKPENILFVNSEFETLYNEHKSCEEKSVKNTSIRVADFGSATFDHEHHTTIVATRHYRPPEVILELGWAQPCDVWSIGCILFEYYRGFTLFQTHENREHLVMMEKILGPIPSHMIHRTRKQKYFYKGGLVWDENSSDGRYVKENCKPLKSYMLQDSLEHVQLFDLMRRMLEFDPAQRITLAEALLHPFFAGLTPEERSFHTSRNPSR
Protocol: CLK3 kinase activity assay (Z-lyte FRET);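 note: kinase activity read as coumarin/fluorescein emission ratio by FRET, unphosphorylated peptide as 0% and phosphorylated peptide as 100% control, values from non-linear regression of dose-response curves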
Study Conditions: Z-lyte Ser/Thr 18 peptide, 156 μM ATP, 1 h at room temperature
Quantity Measured: pEC50
pEC50 is defined as minus the log10 of a concentration measured in mol/L.

O=C(Nc1ccc(N2CC(CO)(CO)C2)nc1)c1n[nH]c2ccc(-c3cncc(CN4CCCCC4)c3)cc12 | 7.41
CC(C)CC(=O)Nc1cncc(-c2ccc3[nH]nc(-c4cc5c(-c6ccncc6)cncc5[nH]4)c3c2)c1 | 7.54
Cc1ccc(NC(=O)c2n[nH]c3ccc(-c4cncc(CN5CCCCC5)c4)cc23)cn1 | 7.36

Query :: Quick one: pEC50 of CC(C)C(=O)Nc1cncc(-c2ccc3[nH]nc(-c4nc5c(-c6cccnc6)ccnc5[nH]4)c3n2)c1 ?
Result :: 6.88

Query :: Try Nc1cncc(-c2cc3c(-c4cc5c(N6CCCCC6)cncc5[nH]4)n[nH]c3cn2)c1 next.
Result :: 7.03

Query :: Try CN1CCN(c2cc(C(=O)Nc3cc4cc(-c5cnn(C)c5N)ccc4cn3)ccn2)CC1 next.
Result :: 7.47

Query :: Try c1cncc(-c2ccc3[nH]nc(-c4nc5c(-c6cccnc6)cccc5[nH]4)c3n2)c1 next.
Result :: 6.53

Query :: Try Cc1ccc(-c2nccc3[nH]c(-c4n[nH]c5ccc(-c6cncc(N)c6)nc45)nc23)s1 next.
Result :: 7.70

Query :: Try Cc1cc(C(=O)Nc2cc3cc(-c4cnn(C)c4)ccc3cn2)cc(N2CCN(C)CC2)n1 next.
Result :: 7.59

* * *

log10 of EC50 overview
System: primary human mesenchymal stem cells (hMSCs)
Protocol: Chondrogenesis screening using primary human mesenchymal stem cells
Type: cell-based
Study Conditions: Homo sapiens, Mesenchymal stem cells, hMSC chondrogenesis; concentration required to induce 50% levels of chondrogenesis with TGF-β3 as positive control; read-out: Conc (nM) of 50% TGF-β3 activity
Base-10 log of EC50, unit nM.

Query :: Quick one: log10 of EC50 of CN1CCN(c2nccc3[nH]c(-c4n[nH]c5cnc(-c6cncc(NC(=O)C(C)(C)C)c6)cc45)cc23)CC1 ?
Result :: 1.00

Query :: Try CN(C)CCNc1cc(F)cc(-c2cncc3[nH]c(-c4n[nH]c5ncc(-c6cccnc6)cc45)nc23)c1 next.
Result :: 2.48

Query :: Try Fc1cccc(-c2ccnc3[nH]c(-c4n[nH]c5ncc(-c6cn[nH]c6)cc45)nc23)c1 next.
Result :: 2.00

Query :: Try Cc1ccncc1-c1cc2c(-c3nc4c(-c5cc(F)cc(CNS(C)(=O)=O)c5)cccc4[nH]3)n[nH]c2cn1 next.
Result :: 1.48

Query :: Try Cc1ccncc1-c1ccc2[nH]nc(-c3cc4c(-c5cccnc5)cncc4[nH]3)c2n1 next.
Result :: 1.00

* * *

Target: CLK2 kinase (Homo sapiens, UniProt P49760)
Sequence (P49760 whole entry): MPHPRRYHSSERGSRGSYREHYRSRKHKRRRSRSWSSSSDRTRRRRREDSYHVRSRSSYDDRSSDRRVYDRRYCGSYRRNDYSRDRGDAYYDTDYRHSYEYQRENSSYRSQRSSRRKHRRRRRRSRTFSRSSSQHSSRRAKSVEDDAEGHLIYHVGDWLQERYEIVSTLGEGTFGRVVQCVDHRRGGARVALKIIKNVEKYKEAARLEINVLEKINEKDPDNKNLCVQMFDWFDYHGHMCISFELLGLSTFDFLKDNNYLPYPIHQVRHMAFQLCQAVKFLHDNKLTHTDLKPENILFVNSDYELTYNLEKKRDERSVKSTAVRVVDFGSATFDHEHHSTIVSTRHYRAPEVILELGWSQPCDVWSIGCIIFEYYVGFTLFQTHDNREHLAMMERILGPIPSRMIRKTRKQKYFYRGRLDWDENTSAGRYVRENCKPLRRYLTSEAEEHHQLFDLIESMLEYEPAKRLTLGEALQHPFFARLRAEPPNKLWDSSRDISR
Protocol: CLK2 kinase activity assay (Z-lyte FRET)
Study Conditions: Z-lyte Ser/Thr 6 peptide, 60 μM ATP, 1 h at room temperature
pEC50: −log10 of the molar value.
Given measured pEC50, output yes (1) if it is greater than or equal to 8 and no (0) if not.

Worked examples follow.
O=C(CC1CCNCC1)Nc1cncc(-c2ccc3[nH]nc(-c4cc5c(N6CCCCC6)nccc5[nH]4)c3n2)c1 | yes (1)
Nc1cncc(-c2ccc3[nH]nc(-c4nc5c(-c6ccccc6F)nccc5[nH]4)c3n2)c1 | yes (1)
CN1CCN(c2cncc3[nH]c(-c4n[nH]c5ccc(-c6cncc(NC(=O)CC7CCNCC7)c6)cc45)cc23)CC1 | yes (1)

Query :: Identify whether the reported pEC50 of the following compound is 8 or greater: Fc1cccc(-c2cncc3[nH]c(-c4n[nH]cc4C#Cc4cncc(OC5CCNCC5)c4)nc23)c1
Result :: yes (1)

Query :: Try COc1cncc(-c2ccc3[nH]nc(-c4nc5c(-c6cccc(F)c6)ccnc5[nH]4)c3n2)c1 next.
Result :: yes (1)

Query :: Try COc1cncc(C(=O)Nc2c[nH]nc2C(=O)Nc2ccc(OCCN3CCCC3)nc2)c1 next.
Result :: no (0)

Query :: Try CC(F)(F)CN1CCC(C(=O)Nc2cc3cc(-c4cnco4)cnc3cn2)CC1 next.
Result :: no (0)

Query :: Try CC(C)CC(=O)Nc1cncc(-c2ccc3[nH]nc(-c4nc5c(-c6ccc(F)cc6)cncc5[nH]4)c3c2)c1 next.
Result :: no (0)

Query :: Try CCCCC(=O)Nc1cncc(-c2ccc3[nH]nc(-c4cc5c(N6CCCCC6)cccc5[nH]4)c3n2)c1 next.
Result :: no (0)

Query :: Try O=C(Nc1cc2cc(-c3cncc(NC4CCNCC4)n3)ccc2cn1)C1CC(F)(F)C1 next.
Result :: yes (1)

Query :: Try Nc1cncc(-c2ccc3[nH]nc(-c4nc5c(-c6ccccc6F)ccnc5[nH]4)c3n2)c1 next.
Result :: yes (1)

Query :: Try NC(=O)c1ccc(NC(=O)c2n[nH]c3ccc(-c4cncc(CN5CCCCC5)c4)cc23)cn1 next.
Result :: yes (1)

* * *

Target: CLK2 kinase (Homo sapiens)
Protocol: CLK2 kinase activity assay (Z-lyte FRET)
Study Conditions: Z-lyte Ser/Thr 6 peptide, 60 μM ATP, 1 h at room temperature
EC50 overview
Reply with a number, then the unit it belongs to.

Here is how some compounds turned out for EC50.
O=C(Nc1c[nH]nc1C(=O)Nc1ccc(OCCN2CCCC2)cc1)c1cccnc1 [compound 3] | 24 nM
CN(C)Cc1cncc(-c2cnc3[nH]nc(-c4nc5c(-c6cc(F)cc(N7CCOCC7)c6)cncc5[nH]4)c3c2)c1 [compound 294] | 1 nM

Query :: Quick one: EC50 of c1cncc(-c2cnc3[nH]nc(-c4cc5cccnc5[nH]4)c3c2)c1 [compound 411] ?
Result :: 5 nM

Query :: Try CN1CCN(c2ccnc3[nH]c(-c4n[nH]c5ccc(-c6cncc(NC(=O)c7ccccc7)c6)nc45)cc23)CC1 [compound 488] next.
Result :: 3 nM

Query :: Try CC(C)CC(=O)Nc1cncc(-c2cc3c(-c4cc5c(-c6cccs6)nccc5[nH]4)n[nH]c3cn2)c1 [compound 506] next.
Result :: 8 nM

Query :: Try O=C(CC1CCNCC1)Nc1cncc(-c2ccc3[nH]nc(-c4nc5c(-c6ccsc6)nccc5[nH]4)c3n2)c1 [compound 248] next.
Result :: 1 nM

Query :: Try CC(C)C(=O)Nc1cncc(-c2cc3c(-c4cc5c(-c6ccncc6)nccc5[nH]4)n[nH]c3cn2)c1 [compound 385] next.
Result :: 12 nM

* * *

Target: CLK2 kinase (Homo sapiens, UniProt P49760)
Protocol: CLK2 kinase activity assay (Z-lyte FRET);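 note: FRET read-out as coumarin to fluorescein emission ratio, unphosphorylated peptide as 0% and phosphorylated peptide as 100% controls, duplicate reactions, non-linear regression fit of dose-response curves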
Format: biochemical
Study Conditions: Z-lyte Ser/Thr 6 peptide, 60 μM ATP, 1 h at room temperature
Quantity Measured: EC50
Reply with a number, then the unit it belongs to.

Here is how some compounds turned out for EC50.
Cc1ncc(NC(=O)c2n[nH]c3ccc(-c4cnc(C)n4C)cc23)s1 | 1 nM
CCCCC(=O)Nc1cncc(-c2ccc3[nH]nc(-c4nc5c(-c6cc(F)cc(NCCN(C)C)c6)cncc5[nH]4)c3n2)c1 | 2 nM
O=C(Nc1cncc(-c2cc3c(-c4cc5cnccc5[nH]4)n[nH]c3cn2)c1)C1CC1 | 5 nM
CC(C)Nc1cncc(-c2cnc3[nH]nc(-c4nc5c(-c6cccc(F)c6)cncc5[nH]4)c3c2)c1 | 13 nM
Cc1cncc(NC(=O)c2n[nH]c3ccc(-c4cncc(CN5CCCCC5)c4)cc23)c1 | 1 nM
CN(C)CCNc1cc(F)cc(-c2cccc3[nH]c(-c4n[nH]c5cnc(-c6cncc(N)c6)cc45)cc23)c1 | 6 nM

Query :: Quick one: EC50 of COc1cncc(C(=O)Nc2c[nH]nc2C(=O)Nc2ccc(N3CCNCC3)nc2)c1 ?
Result :: 14 nM

* * *

System: primary human mesenchymal stem cells (hMSCs)
Protocol: Chondrogenesis screening using primary human mesenchymal stem cells
Type: cell-based
Study Conditions: Homo sapiens, Mesenchymal stem cells, hMSC chondrogenesis; concentration required to induce 50% levels of chondrogenesis with TGF-β3 as positive control; read-out: Conc (nM) of 50% TGF-β3 activity
Quantity Measured: EC50 (nM)
Only the number, expressed in nM, is required.

O=C1CCc2cccc(c2)-c2cncc(c2)NC(=O)c2n[nH]c3ccc(cc23)-c2cncc(c2)CN1 [compound 622] | 30
CN1CCN(c2cccc3[nH]c(-c4n[nH]c5ccc(-c6cncc(CN7CCCCC7)c6)cc45)cc23)CC1 [compound 493] | 100

Field: next compound
Query :: Quick one: EC50 of CS(=O)(=O)NCc1cc(F)cc(-c2nccc3[nH]c(-c4n[nH]c5cnc(-c6cncc(CNCC7CCCC7)c6)cc45)cc23)c1 [compound 534] ?
Result :: 30
